Tested on: human leukocyte elastase (HLE) (Homo sapiens, UniProt P08246)
Sequence (P08246 30-267): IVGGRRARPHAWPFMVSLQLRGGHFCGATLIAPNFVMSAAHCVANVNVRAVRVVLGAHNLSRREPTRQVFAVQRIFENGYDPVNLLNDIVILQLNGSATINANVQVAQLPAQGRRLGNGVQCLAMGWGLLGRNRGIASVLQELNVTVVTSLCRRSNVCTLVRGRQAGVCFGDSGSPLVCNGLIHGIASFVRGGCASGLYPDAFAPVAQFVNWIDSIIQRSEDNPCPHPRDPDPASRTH
Assay comment: Inactivation of human leukocyte elastase: kon measured, Ki* = koff/kon calculated
Assay type: biochemical
Settings: Elastase; rate of inactivation kon = kobs/[I]; value is kon x 10^-3; read-out: 10^-3 x kon
Reported kinact/KI is given for each of the following compounds.
Measure: kinact/KI (M⁻¹ s⁻¹)

compound="COc1ccc2c(c1OC)C(=O)N(CCl)S2(=O)=O [Example 22F]" reading_unit="M⁻¹ s⁻¹" observed_result=20000
compound="CCOc1ccc(OCCOCCOC)c2c1C(=O)N(CSc1nnnn1-c1ccccc1)S2(=O)=O [Example 30L]" reading_unit="M⁻¹ s⁻¹" observed_result=6500
compound="CCOc1cccc2c1C(=O)N(CSc1nnnn1-c1ccccc1)S2(=O)=O [Example 30AT]" reading_unit="M⁻¹ s⁻¹" observed_result=45300
compound=O=C1c2ccccc2S(=O)(=O)N1CSc1nnnn1C1CCCCC1 reading_unit="M⁻¹ s⁻¹" observed_result=2500
compound="O=C1c2ccc([N+](=O)[O-])cc2S(=O)(=O)N1CSc1nnnn1-c1ccccc1 [Example 31C]" reading_unit="M⁻¹ s⁻¹" observed_result=3400
